# TGT: D(1A) dopamine receptor (Homo sapiens, UniProt P21728)
# Sequence (P21728 whole entry): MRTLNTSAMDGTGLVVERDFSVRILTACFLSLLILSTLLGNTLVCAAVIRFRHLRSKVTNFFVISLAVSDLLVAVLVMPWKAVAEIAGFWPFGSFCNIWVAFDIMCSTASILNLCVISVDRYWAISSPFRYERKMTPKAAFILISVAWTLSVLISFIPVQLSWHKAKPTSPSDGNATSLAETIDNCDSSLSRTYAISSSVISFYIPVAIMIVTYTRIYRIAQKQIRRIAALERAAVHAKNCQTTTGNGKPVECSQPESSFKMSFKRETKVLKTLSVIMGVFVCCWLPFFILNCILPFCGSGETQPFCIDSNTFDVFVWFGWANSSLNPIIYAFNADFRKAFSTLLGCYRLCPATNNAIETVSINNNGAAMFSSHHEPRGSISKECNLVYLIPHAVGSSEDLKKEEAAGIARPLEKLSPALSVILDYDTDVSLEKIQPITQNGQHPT
# EXPERIMENT NOTES: Displacement of [3H]SCH23390 from human dopamine D1 receptor by PDSP assay
# TEST CONTEXT: read-out: Ki
Could you please classify the records by Ki using these ranges: Low (below 300 nM), Mid (300 nM to below 1000 nM), High (1000 nM or more)

• Fc1ccc(SCCCN2CCN(c3ccccn3)CC2)cc1 = Low
• Clc1ccc(N2CCN(CCCc3nc4ccccc4s3)CC2)cc1 = High
• Clc1ccc(N2CCN(CCCCCc3nc4ccccc4o3)CC2)cc1 = High
• O=C1c2ccc(F)cc2CC1CCN1CCN(c2ccc(Cl)cc2)CC1 (stereo not given) = Mid
• Fc1ccc(CCCCN2CCN(c3ccc(Cl)cc3)CC2)cc1 = Mid
• Cc1ccc(N2CCN(CCCCc3ccc(F)cc3)CC2)nc1 = Mid
• Clc1ccc(N2CCCN(CCCc3cc4ccccc4o3)CC2)cc1 = Low
• FC(F)(F)c1ccc(OCCCN2CCN(c3ccccn3)CC2)cc1 = High
• Fc1ccc(OCCCN2CCN(c3ncccn3)CC2)cc1 = Low
• Fc1ccc(CCCCN2CCN(c3ncccn3)CC2)cc1 = Low
• Cc1ccc(N2CCN(CCCSc3ccc(F)cc3)CC2)nc1 = Low
• Fc1ccc(SCCCN2CCN(c3ncccn3)CC2)cc1 = Mid
• Clc1ccc(N2CCN(CCCc3nc4ccccc4o3)CC2)cc1 = High
• O=C1c2ccccc2CC1CCN1CCN(c2ccc(Cl)cc2)CC1 (stereo not given) = High
• Cc1ccc(N2CCN(CCCOc3ccc(F)cc3)CC2)nc1 = Low
